- System: B. subtilis 168
- assay_summary: Bliss interaction score (quartile over a dose matrix) (fitness difference); higher = more antagonism (negative = synergy)
Catalogue of compounds with associated Bliss interaction score
recorded_endpoint: Bliss interaction score

1) CCC[C@@H]1C[C@@H](C(=O)N[C@@H]([C@H]2O[C@H](SC)[C@H](O)[C@@H](O)[C@H]2O)[C@@H](C)O)N(C)C1 [Lincomycin] + CN1C2=CC=CC=C2N=C3C1=CC=CC3=O [Pyocyanin]
0.0751
2) C/C(=C\C(=O)OCCCCCCCCC(=O)O)C[C@@H]1OC[C@H](C[C@@H]2O[C@H]2[C@@H](C)[C@H](C)O)[C@@H](O)[C@H]1O [Pseudomonic acid] + CN(C)c1cc(NC(=O)CNC(C)(C)C)c(O)c2c1C[C@H]1C[C@H]3[C@H](N(C)C)C(O)=C(C(N)=O)C(=O)[C@@]3(O)C(O)=C1C2=O [Tigecycline]
0.07
3) N[C@@H]1CONC1=O [CycloserineD] + Cn1nnc(-c2ccc(-c3ccc(N4C[C@H](CO)OC4=O)cc3F)cn2)n1 [Tedizolid]
0.0364

====

- Tested on: B. subtilis 168
- assay_summary: fitness (endpoint OD595 vs no drug) (fraction); higher = more growth
- assay_conditions: first compound 0.125 µg/mL; partner 4 µg/mL
Each entry below carries its reported fitness.
recorded_endpoint: fitness

1. N[C@@H]1CONC1=O [Cycloserine D] + Cc1cc(NS(=O)(=O)c2ccc(N)cc2)no1 [Sulfamethoxazol]
0.951
2. N[C@@H]1CONC1=O [Cycloserine D] + COc1c(N2C[C@@H]3CCCN[C@@H]3C2)c(F)cc2c(=O)c(C(=O)O)cn(C3CC3)c12 [Moxifloxacin]
0.0542
3. COc1c(N2C[C@@H]3CCCN[C@@H]3C2)c(F)cc2c(=O)c(C(=O)O)cn(C3CC3)c12 [Moxifloxacin] + Cc1cc(NS(=O)(=O)c2ccc(N)cc2)no1 [Sulfamethoxazol]
0.0185
4. COc1c(N2C[C@@H]3CCCN[C@@H]3C2)c(F)cc2c(=O)c(C(=O)O)cn(C3CC3)c12 [Moxifloxacin] + CN[C@@H]1[C@H](O)[C@H](NC)[C@H]2O[C@@]3(O)C(=O)C[C@@H](C)O[C@H]3O[C@@H]2[C@H]1O [Spectinomycin]
0.0367
5. CCC[C@@H]1C[C@@H](C(=O)N[C@@H]([C@H]2O[C@H](SC)[C@H](O)[C@@H](O)[C@H]2O)[C@H](C)Cl)N(C)C1 [Clindamycin] + COc1c(N2C[C@@H]3CCCN[C@@H]3C2)c(F)cc2c(=O)c(C(=O)O)cn(C3CC3)c12 [Moxifloxacin]
0.0309
6. CCC[C@@H]1C[C@@H](C(=O)N[C@@H]([C@H]2O[C@H](SC)[C@H](O)[C@@H](O)[C@H]2O)[C@H](C)Cl)N(C)C1 [Clindamycin] + Cc1cc(NS(=O)(=O)c2ccc(N)cc2)no1 [Sulfamethoxazol]
0.431

====

- System: S. pneumoniae D39V
- assay_summary: fitness (endpoint OD595 vs no drug) (fraction); higher = more growth
- assay_conditions: first compound 0.01 µg/mL; partner 4 µg/mL
Each item that follows carries a reported fitness.
recorded_endpoint: fitness

1) COc1c(N2C[C@@H]3CCCN[C@@H]3C2)c(F)cc2c(=O)c(C(=O)O)cn(C3CC3)c12 [Moxifloxacin] + CN[C@@H]1[C@H](O[C@H]2[C@H](O[C@H]3[C@H](O)[C@@H](O)[C@H](N=C(N)N)[C@@H](O)[C@@H]3N=C(N)N)O[C@@H](C)[C@]2(O)C=O)O[C@@H](CO)[C@H](O)[C@H]1O [Streptomycin]
0.958
2) COc1c(N2C[C@@H]3CCCN[C@@H]3C2)c(F)cc2c(=O)c(C(=O)O)cn(C3CC3)c12 [Moxifloxacin] + O=C1CN(/N=C/c2ccc([N+](=O)[O-])o2)C(=O)N1 [Nitrofurantoin]
0.949
3) C[C@@H](O)[C@H]1C(=O)N2C(C(=O)O)=C(SCCNC=N)C[C@H]12 [Imipenem] + CN[C@@H]1[C@H](O[C@H]2[C@H](O[C@H]3[C@H](O)[C@@H](O)[C@H](N=C(N)N)[C@@H](O)[C@@H]3N=C(N)N)O[C@@H](C)[C@]2(O)C=O)O[C@@H](CO)[C@H](O)[C@H]1O
0.986
4) COc1c(N2C[C@@H]3CCCN[C@@H]3C2)c(F)cc2c(=O)c(C(=O)O)cn(C3CC3)c12 [Moxifloxacin] + COc1ccc(C[C@H](N)C(=O)N[C@H]2[C@@H](O)[C@H](n3cnc4c(N(C)C)ncnc43)O[C@@H]2CO)cc1 [Puromycin]
0.88

====

Bliss interaction score: recorded values
- System: S. pneumoniae D39V
- assay_summary: Bliss interaction score (quartile over a dose matrix) (fitness difference); higher = more antagonism (negative = synergy)
recorded_endpoint: Bliss interaction score

1) O=C(O[C@@H]1Cc2c(O)cc(O)cc2O[C@@H]1c1cc(O)c(O)c(O)c1)c1cc(O)c(O)c(O)c1 [EGCG] + CC(=O)O[C@H]1C[C@@]2(C)[C@@H](C[C@@H](O)[C@H]3[C@@]4(C)CC[C@@H](O)[C@@H](C)[C@@H]4CC[C@@]32C)/C1=C(\CCC=C(C)C)C(=O)O [Fusidic acid]
-0.143
2) O=C1CN(/N=C/c2ccc([N+](=O)[O-])o2)C(=O)N1 [Nitrofurantoin] + CN[C@@H]1[C@H](O)[C@H](NC)[C@H]2O[C@@]3(O)C(=O)C[C@@H](C)O[C@H]3O[C@@H]2[C@H]1O [Spectinomycin]
0.0652
3) CC(=O)O[C@H]1C[C@@]2(C)[C@@H](C[C@@H](O)[C@H]3[C@@]4(C)CC[C@@H](O)[C@@H](C)[C@@H]4CC[C@@]32C)/C1=C(\CCC=C(C)C)C(=O)O [Fusidic acid] + Cn1nnc(-c2ccc(-c3ccc(N4C[C@H](CO)OC4=O)cc3F)cn2)n1 [Tedizolid]
-0.0933
4) N[C@@H]1CONC1=O [CycloserineD] + COc1cccc2c1C(=O)c1c(O)c3c(c(O)c1C2=O)C[C@@](O)(C(=O)CO)C[C@@H]3O[C@H]1C[C@H](N)[C@H](O)[C@H](C)O1 [Doxorubicin]
0.0698
5) O=C(O[C@@H]1Cc2c(O)cc(O)cc2O[C@@H]1c1cc(O)c(O)c(O)c1)c1cc(O)c(O)c(O)c1 [EGCG] + CN[C@@H]1[C@H](O)[C@H](NC)[C@H]2O[C@@]3(O)C(=O)C[C@@H](C)O[C@H]3O[C@@H]2[C@H]1O [Spectinomycin]
-0.0456
6) N[C@@H]1CONC1=O [CycloserineD] + CN[C@@H]1[C@H](O[C@H]2[C@H](O[C@H]3[C@H](O)[C@@H](O)[C@H](N=C(N)N)[C@@H](O)[C@@H]3N=C(N)N)O[C@@H](C)[C@]2(O)C=O)O[C@@H](CO)[C@H](O)[C@H]1O [Streptomycin]
-0.108
7) CCC[C@@H]1C[C@@H](C(=O)N[C@@H]([C@H]2O[C@H](SC)[C@H](O)[C@@H](O)[C@H]2O)[C@H](C)Cl)N(C)C1 [Clindamycin] + CN(C)c1cc(NC(=O)CNC(C)(C)C)c(O)c2c1C[C@H]1C[C@H]3[C@H](N(C)C)C(O)=C(C(N)=O)C(=O)[C@@]3(O)C(O)=C1C2=O [Tigecycline]
-0.0934
8) CCC[C@@H]1C[C@@H](C(=O)N[C@@H]([C@H]2O[C@H](SC)[C@H](O)[C@@H](O)[C@H]2O)[C@@H](C)O)N(C)C1 [Lincomycin] + C/C(=C\C(=O)OCCCCCCCCC(=O)O)C[C@@H]1OC[C@H](C[C@@H]2O[C@H]2[C@@H](C)[C@H](C)O)[C@@H](O)[C@H]1O [Pseudomonic acid]
-0.269

====

- System: S. aureus Newman
- assay_summary: Bliss interaction score (quartile over a dose matrix) (fitness difference); higher = more antagonism (negative = synergy)
recorded_endpoint: Bliss interaction score

1. CC[C@H]1OC(=O)[C@H](C)[C@@H](O[C@H]2C[C@@](C)(OC)[C@@H](O)[C@H](C)O2)[C@H](C)[C@@H](O[C@@H]2O[C@H](C)C[C@H](N(C)C)[C@H]2O)[C@](C)(OC)C[C@@H](C)C(=O)[C@H](C)[C@@H](O)[C@]1(C)O [Clarithromycin] + Cc1onc(-c2ccccc2)c1C(=O)N[C@@H]1C(=O)N2[C@@H]1SC(C)(C)[C@@H]2C(=O)O [Oxacillin]
-0.0384
2. CC(=O)O[C@H]1C[C@@]2(C)[C@@H](C[C@@H](O)[C@H]3[C@@]4(C)CC[C@@H](O)[C@@H](C)[C@@H]4CC[C@@]32C)/C1=C(\CCC=C(C)C)C(=O)O [Fusidic acid] + CCN(CC)CCOC(=O)c1ccc(N)cc1 [Procaine]
-0.0177
3. CC(=O)OC[C@H]1O[C@@H]([S-])[C@H](OC(C)=O)[C@@H](OC(C)=O)[C@@H]1OC(C)=O.CCP(CC)CC.[Au+] [Auranofin] + CN[C@@H]1[C@H](O[C@H]2[C@H](O[C@H]3[C@H](O)[C@@H](O)[C@H](N=C(N)N)[C@@H](O)[C@@H]3N=C(N)N)O[C@@H](C)[C@]2(O)C=O)O[C@@H](CO)[C@H](O)[C@H]1O [Streptomycin]
-0.0862
4. N[C@@H]1CONC1=O [CycloserineD] + CO[C@@H]1[C@@H](OC(N)=O)[C@@H](O)[C@H](Oc2ccc3c(O)c(NC(=O)c4ccc(O)c(CC=C(C)C)c4)c(=O)oc3c2C)OC1(C)C [Novobiocin]
0.0912
5. CCC[C@@H]1C[C@@H](C(=O)N[C@@H]([C@H]2O[C@H](SC)[C@H](O)[C@@H](O)[C@H]2O)[C@H](C)Cl)N(C)C1 [Clindamycin] + COc1ccc(C[C@H](N)C(=O)N[C@H]2[C@@H](O)[C@H](n3cnc4c(N(C)C)ncnc43)O[C@@H]2CO)cc1 [Puromycin]
-0.0646
6. O=C(O[C@@H]1Cc2c(O)cc(O)cc2O[C@@H]1c1cc(O)c(O)c(O)c1)c1cc(O)c(O)c(O)c1 [EGCG] + O=C1CN(/N=C/c2ccc([N+](=O)[O-])o2)C(=O)N1 [Nitrofurantoin]
0.0864
7. CC[C@H]1OC(=O)[C@H](C)[C@@H](O[C@H]2C[C@@](C)(OC)[C@@H](O)[C@H](C)O2)[C@H](C)[C@@H](O[C@@H]2O[C@H](C)C[C@H](N(C)C)[C@H]2O)[C@](C)(OC)C[C@@H](C)C(=O)[C@H](C)[C@@H](O)[C@]1(C)O [Clarithromycin] + Cc1ncc([N+](=O)[O-])n1CCO [Metronidazole]
-0.0393
8. CC(=O)OC[C@H]1O[C@@H]([S-])[C@H](OC(C)=O)[C@@H](OC(C)=O)[C@@H]1OC(C)=O.CCP(CC)CC.[Au+] [Auranofin] + C[C@@H]1O[C@@H]1P(=O)(O)O [Fosfomycin]
0.0901

// data source = the supplement of paper PMC10627819
